# ASSAY_NAME: Plasma pharmacokinetics of AZD5363 after a single dose and multiple doses
# Assay type: in vivo, human
# MEASUREMENT_SETUP: human, plasma, oral; single dose; 360 mg bid intermittent 4/3 cohort, n=8; geometric mean (CV%); read-out: V ss/F
PARAMETER_MEASURED: Vd/F (L)
Just the number please, in L, no unit attached.

Q. Record request: Vd/F value, item NC1(C(=O)N[C@@H](CCO)c2ccc(Cl)cc2)CCN(c2ncnc3[nH]ccc23)CC1
A. 681

---

# ASSAY_NAME: Plasma pharmacokinetics of AZD5363 after a single dose and multiple doses
# Format: in vivo, human
# MEASUREMENT_SETUP: human, plasma, oral; single dose; 320 mg bid continuous cohort, n=6; median (range); read-out: t max
PARAMETER_MEASURED: Tmax (h)
Just the number please, in h, no unit attached.

Q. Record request: Tmax value, item NC1(C(=O)N[C@@H](CCO)c2ccc(Cl)cc2)CCN(c2ncnc3[nH]ccc23)CC1 [AZD5363]
A. 1.98

---

# ASSAY_NAME: Plasma pharmacokinetics of AZD5363 after a single dose and multiple doses
# Format: in vivo, human
# MEASUREMENT_SETUP: human, plasma, oral; single dose; 80 mg bid continuous cohort, n=3; geometric mean (CV%)
# Text: […] area under the plasma concentration–time curve (AUC), maximum plasma (peak) drug concentration (Cmax), time to reach Cmax (tmax), apparent plasma clearance (CL/F), and oral volume of distribution at steady state (Vss/F).
PARAMETER_MEASURED: Cmax (ng/mL)
Just the number please, in ng/mL, no unit attached.

Q. Record request: Cmax value, item NC1(C(=O)N[C@@H](CCO)c2ccc(Cl)cc2)CCN(c2ncnc3[nH]ccc23)CC1
A. 217

---

# ASSAY_NAME: Plasma pharmacokinetics of AZD5363 after a single dose and multiple doses
# Assay type: in vivo, human
# MEASUREMENT_SETUP: human, plasma, oral; single dose; Total, n=41; geometric mean (CV%); read-out: V ss/F
PARAMETER_MEASURED: Vd/F (L)
Just the number please, in L, no unit attached.

Q. Record request: Vd/F value, item NC1(C(=O)N[C@@H](CCO)c2ccc(Cl)cc2)CCN(c2ncnc3[nH]ccc23)CC1
A. 595

---

# ASSAY_NAME: Plasma pharmacokinetics of AZD5363 after a single dose and multiple doses
# Format: in vivo, human
# MEASUREMENT_SETUP: human, plasma, oral; single dose; 240 mg bid continuous cohort, n=7; median (range); read-out: t max
PARAMETER_MEASURED: Tmax

Q. Record request: Tmax value, item NC1(C(=O)N[C@@H](CCO)c2ccc(Cl)cc2)CCN(c2ncnc3[nH]ccc23)CC1
A. 1.9 h

---

# ASSAY_NAME: Plasma pharmacokinetics of AZD5363 after a single dose and multiple doses
# Assay type: in vivo, human
# MEASUREMENT_SETUP: human, plasma, oral, 240 mg, multiple doses; 240 mg bid continuous, n=7; geometric mean (CV%); read-out: AUCss
# Excerpt: […] area under the plasma concentration–time curve (AUC), maximum plasma (peak) drug concentration (Cmax), time to reach Cmax (tmax), apparent plasma clearance (CL/F), and oral volume of distribution at steady state (Vss/F).
PARAMETER_MEASURED: AUC (ng·h/mL)
Just the number please, in ng·h/mL, no unit attached.

Q. Record request: AUC value, item NC1(C(=O)N[C@@H](CCO)c2ccc(Cl)cc2)CCN(c2ncnc3[nH]ccc23)CC1
A. 4840
